assay procedure: thallium flux in non-induced HEK293 cells, confirmation, counter-screen for KCNK9 inhibitor project, cell-based, second counter screen, non-induced KCNK9-HEK293 (AID 492997)
test conditions: non-induced KCNK9-HEK293, FluxOR thallium flux, at 10 µM
About 2,000 (41%) of roughly 4,900 compounds were called active.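 Rule for the calls: active = thallium signal drop beyond 5 SD of the untreated control mean, on both duplicate plates; inactive = the rest.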 So high a share suggests a set chosen from earlier hits. A selection follows.
Outcome codes: active, inactive

                                smiles_repr  answer_label
0  Cc1cccc(N(C)C(=O)CN2C(=O)COc3ccc(S(=O)(=O)N4CCCCCC4)cc32)c1      inactive
1           CCOC(=O)Cc1cc(=O)[nH]c(=O)[nH]1      inactive
2  Cc1cc(C=O)c(C)n1-c1ccc(NC2CCCCC2)c([N+](=O)[O-])c1        active
3  O=C(NNc1ccccc1Cl)C(O)(c1cccc(C(F)(F)F)c1)c1cccc(C(F)(F)F)c1      inactive
4  Cc1cccc(C(=O)Nc2ccccc2N2CCN(c3ccc(F)cc3)CC2)c1        active
5  COc1ccccc1N1CCN(c2ncnc3sc(C)c(-c4ccccc4)c23)CC1      inactive
6   CCc1ccccc1NC(=O)/C(=C/c1ccccc1)c1ccccc1        active

###

assay procedure: thallium flux in non-induced HEK293 cells, confirmation, counter-screen for KCNK9 inhibitor project, cell-based, second counter screen, non-induced KCNK9-HEK293 (AID 492997)
test conditions: non-induced KCNK9-HEK293, FluxOR thallium flux, at 10 µM
Among all 4,900 compounds or so, about 2,000 (41%) were called active.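 How the source made its calls: active means thallium signal drop beyond 5 SD of the untreated control mean, on both duplicate plates; inactive means the rest.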 So high a share suggests a set chosen from earlier hits. Not all results are given here.
Outcome codes: 1 (yes) (active), 0 (no) (inactive)

>>> df
                                smiles_repr  answer_label
0  Cc1cc(C)cc(NC(=O)CSCc2cnn(-c3ccccc3)c2-n2cccc2)c1        0 (no)
1  CC(C)N(C(=O)CSc1nc(COc2ccccc2)nc2ccccc12)C(C)C       1 (yes)
2    COc1ccc(CCNC(=O)c2ccccc2OCc2ccccc2)cc1       1 (yes)

###

assay procedure: thallium flux in non-induced HEK293 cells, confirmation, counter-screen for KCNK9 inhibitor project, cell-based, second counter screen, non-induced KCNK9-HEK293 (AID 492997)
test conditions: non-induced KCNK9-HEK293, FluxOR thallium flux, at 10 µM
The whole screen tested about 4,900 compounds, of which about 2,000 (41%) were called active.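 How the source made its calls: active means thallium signal drop beyond 5 SD of the untreated control mean, on both duplicate plates; inactive means the rest.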 The set was probably picked from earlier hits. Only a sample is shown.
Outcome codes: t for active, f for inactive

                                    molecule  answer_label
 0  O=C(NCc1ccco1)c1ccc(NS(=O)(=O)c2cccc([N+](=O)[O-])c2)cc1             f
 1  O=C(N/N=C/c1ccccn1)c1cccc(NC(=O)c2ccc(Cl)cc2)c1             t
 2  CCN(CC)C(=O)CC1(c2ccccc2OC)CCOC(C(C)C)C1 (configuration not stated)             t
 3         COc1cccc(C(=O)NCCSc2ccc(Br)cc2)c1             f
 4  Cc1onc(-c2ccc(Cl)cc2)c1-c1ccnn1S(=O)(=O)c1ccc(Cl)cc1             t
 5  COCCNc1cc(-c2ccccc2)nc2cc(-c3cccc(F)c3)nn12             t
 6     COc1cccc2sc(NNC(=O)c3nc4ccccc4s3)nc12             f
 7  Cc1ccc(NC(=O)c2cc([N+](=O)[O-])ccc2Cl)c(O)c1             t
 8  CCCC1=Nc2cc(C(=O)NCc3ccco3)ccc2Sc2ccccc21             t
 9        Cc1c(C(=O)Nc2ccccn2)oc2ccc(Br)cc12             t
10     COc1cc(NC(=S)NCCSc2ccc(C)cc2)cc(OC)c1             t
11  C[C@@]12C(=O)N(c3cccc(Br)c3)C(=O)N1[C@H](c1ccc(Cl)cc1)[C@@H]1C(=O)N(C3CCCCC3)C(=O)[C@@H]12             f
12       COc1ccc(-c2noc(CSc3ccc(C)cc3)n2)cc1             f
13  COc1cccc(-c2nn(C)c3sc(C(=O)N4CCN(c5ccccc5)CC4)cc23)c1             f
14  O=C(C[C@H]1C(=O)N(c2ccc(F)c(F)c2)C[C@@H]1Cc1ccccc1)Nc1ccccc1             t
15  COc1cccc2cc(C(C)N(CCCN3CCOCC3)C(=O)Nc3ccc(Cl)cc3)oc12 (configuration not stated)             t
16  O=C(OCC(=O)N(CCc1ccccc1)Cc1ccccc1)c1ccccc1[N+](=O)[O-]             f
17  CC(Oc1ccc2ccccc2c1)C(=O)NNC(=S)NC(=O)c1ccco1 (configuration not stated)             f
18    O=C(COC(=O)c1ccccc1)Nc1ccccc1Sc1ccccc1             t
19  O=C(Oc1ccc(Br)cc1C(=S)N1CCOCC1)c1cccc([N+](=O)[O-])c1             f
20   Cc1csc(Nc2ccc(Cl)cc2)[n+]1-c1ccc(Cl)cc1             f
21  N#Cc1nc(Cc2cccc3ccccc23)oc1NCc1ccc2c(c1)OCO2             t
22  O=C1/C(=C/c2ccc3c(c2)OCO3)CCC/C1=C\c1ccc2c(c1)OCO2             f
23  CN(c1ccccc1)S(=O)(=O)c1cccc(NC(=O)Cc2c(F)cccc2Cl)c1             t
24  CCOC(=O)C1(CCOc2ccccc2)CCN(Cc2cc(OC)c(O)cc2Cl)CC1             f
25  CCCCCCCCCCOC(=O)Cn1c(COc2ccc(C)cc2)[n+](C)c2ccccc21             f
26  COCCN(C(=S)Nc1cccc(Cl)c1C)C(C)c1ccco1 (configuration not stated)             f
27  Cc1cccc(NC(=O)c2sc3nc4c(c(-c5ccco5)c3c2N)CCC4)c1             t
28  CCOC(=O)C(C)n1cnc2scc(-c3ccc(C)c(C)c3)c2c1=O (configuration not stated)             f
29  COC(C(=O)Nc1ccc(S(=O)(=O)Nc2ccc(C)c(C)c2)cc1)c1ccccc1 (configuration not stated)             f
30  COc1ccc(-c2oc(/N=C/N3CCCC3)c(C#N)c2-c2ccc(OC)cc2)cc1             f
31  O=C(Nc1ccc2c(c1)CCC2)c1cccc(S(=O)(=O)Nc2ccccc2Cl)c1             f
32  COc1cccc(OC)c1C(=O)Nc1sc2c(c1C(N)=O)CCCC2             f
33  COc1ccc(C(=O)C2CCCN(Cc3ccc4nonc4c3)C2)c(C)c1 (configuration not stated)             f
34  O=S(=O)(c1ccc(F)cc1)N1CCN(Cc2ccccc2C(F)(F)F)CC1             f
35  Cc1ccccc1CSCCNC(=O)c1ccc(N(C)S(=O)(=O)c2ccccc2)cc1             f
36    CCOc1ccc(C(C)C)cc1S(=O)(=O)n1nc(C)cc1C             t

###

assay procedure: thallium flux in non-induced HEK293 cells, confirmation, counter-screen for KCNK9 inhibitor project, cell-based, second counter screen, non-induced KCNK9-HEK293 (AID 492997)
test conditions: non-induced KCNK9-HEK293, FluxOR thallium flux, at 10 µM
Out of some 4,900 compounds screened, about 2,000 (41%) were called active.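 The calls were made as follows: active = thallium signal drop beyond 5 SD of the untreated control mean, on both duplicate plates; inactive = the rest.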 The set was probably picked from earlier hits. A selection follows.
Outcome codes: active, inactive

>>> print(df.to_string())
                                    compound  answer_label
 0  Cc1ccc(S(=O)(=O)N2CCN(C(=O)COC(=O)c3c(C)cc(C)cc3C)CC2)c(C)c1      inactive
 1  O=C(Nc1cc(Cl)cc(Cl)c1)C(NCCCO)c1ccccc1 (centres undefined)        active
 2     Cc1ccc(CN2CCN(/N=C/c3ccco3)CC2)c(C)c1      inactive
 3  CCC/C=C(\CCC)C(NC(=O)Cc1ccccc1)c1ccc(C(=O)OC)cc1 (centres undefined)        active
 4  Cc1cccc(NC(=O)N(Cc2cc3cc(C)cc(C)c3[nH]c2=O)CC2COCCO2)c1 (centres undefined)      inactive
 5  O=C(NC(=S)Nc1ccccc1C(=O)O)c1ccc(-c2ccc(Br)cc2)o1      inactive
 6  Cc1cccc2cc(CN(Cc3nnnn3Cc3ccccc3)C3CCCC3)c(=O)[nH]c12      inactive
 7         CCCOc1ccc2c3c(c(=O)oc2c1OCCC)CCC3        active
 8  CC(C)(C)NC(=O)NC(=O)CN1CCC(Cc2ccccc2)CC1      inactive
 9  Cc1ccc(SCC(=O)c2cc(C)c(OC(=S)N(C)C)c(C)c2)cc1        active
10  O=C(Nc1ccc(Br)c2cccnc12)c1ccc(Cn2cc([N+](=O)[O-])cn2)o1        active
11  Cc1cc(OC(C)C(=O)Nc2ccc(S(=O)(=O)Nc3onc(C)c3C)cc2)cc(C)c1Cl (centres undefined)      inactive
12  O=C(COC(=O)/C(=C/c1cccs1)c1cccs1)NCc1ccccc1Cl        active
13  CC1CCN(C(=S)c2ccc(-c3ccc(Cl)cc3Cl)o2)CC1      inactive
14  COc1ccc([N+](=O)[O-])cc1-c1nc2ccccc2nc1-c1ccccc1        active
15  Cc1ccc2c(c1)N(C(=O)CCC(=O)N1CCc3ccccc3C1)CCO2      inactive
16  O=C(CSCc1ccc(Cl)cc1)N1CCN(Cc2ccc3c(c2)OCO3)CC1      inactive
17  O=C1CC(c2ccccc2)=NN1c1ccc([N+](=O)[O-])cc1      inactive
18  Cc1ccc(C(=O)/C=C/c2c(C)nn(-c3ccccc3)c2Cl)cc1      inactive
